assay: modulators of S6 phosphorylation in cells, primary screen, cell-based, A549, cytoblot, luminescence, serum-stimulated (AID 1158); conditions: A549 phospho-S6 cytoblot, 5 h, higher = more signal;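 note: serum-stimulated A549 lung adenocarcinoma cells; signal is phosphorylated S6 detected by cytoblot immunostaining with HRP secondary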
Think of 0.03 as a floor: if z-score stands on it or above, it is Fulfilled; beneath it, Not fulfilled.

Reference set, count: 5
[[record]]
compound = "CC(CCC(=O)OC[C@H]1O[C@H](C#Cc2ccccc2)C=C[C@@H]1Oc1ccc(C)cc1)=NOC[C@@H](O)COCc1ccco1"
label_value = "Fulfilled"

[[record]]
compound = "C[C@@H]1C=CCC(=O)OC[C@H](C)C(=O)OC[C@H]2O[C@H]1C=C[C@H]2O"
label_value = "Fulfilled"

[[record]]
compound = "CC(C)=CCCC(C)=CCON=C1C[C@@H](O)[C@@H](O)[C@@H]2[C@@H]3C(=O)N(C[C@@H]4CCCO4)C(=O)[C@@H]3CC[C@@H]12"
label_value = "Not fulfilled"

[[record]]
compound = "COC(=O)CC1OC1[C@H](C)[C@@H](OC)C(C)C (stereo partly drawn)"
label_value = "Not fulfilled"

[[record]]
compound = "CCOC(=O)NN=C1C[C@@H](O)[C@@H](O)[C@@H]2[C@@H]3C(=O)N(C4CCCCC4)C(=O)[C@@H]3CC[C@H]12"
label_value = "Not fulfilled"


Assess whether reported z-score for CCOC(=O)C1=CCC(c2cc3ccccc3[nH]2)NC1 (stereo not drawn) sits at 0.03 or higher.
Fulfilled

Entry CO[C@H]1O[C@H](CO)[C@@H](OC(=O)Nc2ccc(C#N)cc2)[C@H](OC(=O)c2cc3ccccc3[nH]2)[C@H]1OC(=O)c1cc2ccccc2[nH]1 : is its z-score no less than 0.03?
Fulfilled

Record O=C1[C@H]2[C@H]3[C@H](O)[C@H](O)CC(=NOC[C@@H](O)COCc4ccco4)[C@H]3CC[C@H]2C(=O)N1Cc1ccc2c(c1)OCO2 ; criterion: z-score no lower than 0.03. Met?
Not fulfilled
